molecular target: human acetyl-CoA carboxylase 2 (ACC2) (Homo sapiens); construct: The cDNA encoding amino acids 144 to 2458 of human acetyl-CoA carboxylase 2; made in house; host or cells: Sf9 insect cells (baculovirus, pFastBac1); assay: Acetyl-CoA carboxylase enzyme assay (malonyl-CoA formation by LC/MS/MS); assay type: biochemical; conditions: recombinant human ACC2 (aa 144-2458); read-out: IC50 ACC2
Sequence (O00763 144-2458): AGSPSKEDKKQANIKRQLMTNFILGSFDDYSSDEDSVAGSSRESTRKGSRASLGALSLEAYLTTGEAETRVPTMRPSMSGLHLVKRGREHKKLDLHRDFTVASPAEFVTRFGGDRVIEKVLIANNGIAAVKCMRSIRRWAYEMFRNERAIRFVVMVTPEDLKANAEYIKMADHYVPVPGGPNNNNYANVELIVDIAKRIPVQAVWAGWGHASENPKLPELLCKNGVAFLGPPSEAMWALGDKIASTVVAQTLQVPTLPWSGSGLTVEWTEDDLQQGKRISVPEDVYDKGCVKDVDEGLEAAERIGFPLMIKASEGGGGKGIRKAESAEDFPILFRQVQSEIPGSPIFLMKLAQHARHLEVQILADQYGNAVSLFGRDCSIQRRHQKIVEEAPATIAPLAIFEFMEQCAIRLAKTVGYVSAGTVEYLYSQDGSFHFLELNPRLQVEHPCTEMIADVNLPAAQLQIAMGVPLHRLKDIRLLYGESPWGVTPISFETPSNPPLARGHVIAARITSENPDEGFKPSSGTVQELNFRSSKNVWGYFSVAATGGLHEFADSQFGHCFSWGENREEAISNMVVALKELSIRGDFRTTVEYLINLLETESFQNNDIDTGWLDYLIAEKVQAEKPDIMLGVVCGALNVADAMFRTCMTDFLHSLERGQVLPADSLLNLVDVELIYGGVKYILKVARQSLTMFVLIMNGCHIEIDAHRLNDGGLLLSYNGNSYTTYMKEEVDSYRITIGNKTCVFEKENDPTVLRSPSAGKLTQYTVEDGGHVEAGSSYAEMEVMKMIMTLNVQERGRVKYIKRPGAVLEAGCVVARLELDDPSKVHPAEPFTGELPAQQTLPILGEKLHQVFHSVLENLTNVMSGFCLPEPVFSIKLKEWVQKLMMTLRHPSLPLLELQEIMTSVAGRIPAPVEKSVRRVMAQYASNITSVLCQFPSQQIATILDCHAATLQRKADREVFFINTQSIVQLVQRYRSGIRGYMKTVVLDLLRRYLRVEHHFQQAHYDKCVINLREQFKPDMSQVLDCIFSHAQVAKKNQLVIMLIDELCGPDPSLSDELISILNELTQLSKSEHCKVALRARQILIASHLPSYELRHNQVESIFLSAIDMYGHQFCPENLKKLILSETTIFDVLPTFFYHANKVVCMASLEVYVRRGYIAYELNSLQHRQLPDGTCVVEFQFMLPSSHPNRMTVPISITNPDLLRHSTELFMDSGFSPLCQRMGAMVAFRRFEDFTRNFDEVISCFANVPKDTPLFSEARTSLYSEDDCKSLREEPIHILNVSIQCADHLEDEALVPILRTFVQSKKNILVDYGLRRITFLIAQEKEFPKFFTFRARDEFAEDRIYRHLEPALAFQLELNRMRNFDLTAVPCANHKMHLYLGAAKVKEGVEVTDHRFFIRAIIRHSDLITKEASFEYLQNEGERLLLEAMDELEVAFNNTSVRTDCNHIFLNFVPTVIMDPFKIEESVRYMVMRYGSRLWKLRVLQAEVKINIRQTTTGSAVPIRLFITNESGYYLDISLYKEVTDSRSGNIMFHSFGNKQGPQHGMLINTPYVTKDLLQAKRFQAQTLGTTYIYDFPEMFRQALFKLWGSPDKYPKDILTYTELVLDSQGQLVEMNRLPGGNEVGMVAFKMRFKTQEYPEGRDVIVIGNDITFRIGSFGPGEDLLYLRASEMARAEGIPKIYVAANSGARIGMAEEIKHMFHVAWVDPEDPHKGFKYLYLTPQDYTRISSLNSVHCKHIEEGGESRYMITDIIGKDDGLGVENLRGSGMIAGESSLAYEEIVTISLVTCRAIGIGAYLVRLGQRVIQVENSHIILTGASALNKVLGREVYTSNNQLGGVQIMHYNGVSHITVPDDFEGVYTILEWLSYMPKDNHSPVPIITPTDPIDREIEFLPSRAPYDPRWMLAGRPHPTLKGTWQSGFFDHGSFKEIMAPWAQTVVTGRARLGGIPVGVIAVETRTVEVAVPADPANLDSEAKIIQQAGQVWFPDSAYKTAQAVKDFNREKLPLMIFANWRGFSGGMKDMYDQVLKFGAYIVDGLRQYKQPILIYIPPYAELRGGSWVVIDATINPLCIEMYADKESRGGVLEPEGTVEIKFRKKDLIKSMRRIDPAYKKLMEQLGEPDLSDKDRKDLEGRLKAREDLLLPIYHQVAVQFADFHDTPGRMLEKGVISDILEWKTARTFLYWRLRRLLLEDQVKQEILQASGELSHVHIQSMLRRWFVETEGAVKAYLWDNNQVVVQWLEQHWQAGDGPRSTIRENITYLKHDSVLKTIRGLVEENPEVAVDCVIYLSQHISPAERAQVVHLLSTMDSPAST
attributeMeasured: IC50

Report value only: IC50, human acetyl-CoA carboxylase 2 (ACC2) (Homo sapiens), C[C@@H](NC(=O)[C@H]1CC[C@H](NS(=O)(=O)c2cnc3c(c2)N(C)CCN3)CC1)c1ccc(F)cc1 59 nM

Report value only: IC50, human acetyl-CoA carboxylase 2 (ACC2) (Homo sapiens), COC(=O)c1ccc(-c2cc3ccc(S(=O)(=O)N[C@H]4CC[C@H](C(=O)N[C@H](C)c5ccc(F)cc5)CC4)cc3[nH]2)c(C)c1 10 nM

Report value only: IC50, human acetyl-CoA carboxylase 2 (ACC2) (Homo sapiens), C[C@@H](NC(=O)[C@H]1CC[C@H](NS(=O)(=O)c2cccc3ccccc23)CC1)c1ccc(F)cc1 433 nM

Report value only: IC50, human acetyl-CoA carboxylase 2 (ACC2) (Homo sapiens), CC(C)OC(=O)c1ccc(NS(=O)(=O)c2ccc3nc(-c4cccc(F)c4)[nH]c3c2)cc1 2340 nM
